Exercise: for every item that follows, state its recorded Percent Effect.
# Tested on: Mycobacterium tuberculosis
# test description: Cornell M. t heat shock assay; note: in the data most compounds retested in dose-response had high values
# Assay type: functional, organism-based
# Set-up: dose or concentration left out as unconfirmed
Hit rate of the full screen: of about 69,000 compounds, about 950 (1.4%) showed an effect of 50% or more. Many of the other results were omitted from the sample, so strong results are more common in it than they were.
One number for each entry, in %.

Before answering, review these 8 worked examples.
> print(dat)
                                   compound  attribute.measured   value
1          CCn1nc(C)c(CN(CCOC)Cc2ccccn2)c1C      Percent Effect  -2.912
2             Cc1nn(C)cc1CN(C)C(=O)c1ccccn1      Percent Effect  -16.12
3  O=C(CSCC1CC1)N1CCCC(c2nccn2Cc2ccncc2)C1 (configuration not stated)      Percent Effect   27.98
4                COc1ccc(Cl)cc1CNCCCn1ccnc1      Percent Effect   13.48
5   CCn1nc(C)c(CN(Cc2ccccn2)Cc2ccccc2Cl)c1C      Percent Effect    58.2
6  CO[C@@H]1CCN(C(=O)c2ccsc2)[C@@H]2CN(CC3CC3)C[C@@H]21.O=C(O)C(F)(F)F      Percent Effect    9.15
7  CN(C)Cc1cc(C2CCN(C(=O)C3CC34CCC4)CC2)nn1C.Cl (configuration not stated)      Percent Effect  -10.56
8  COc1ccc(F)c(CN2CCC(c3cc(O)nc(C)n3)C2)c1.O=C(O)CC(O)(CC(=O)O)C(=O)O (configuration not stated)      Percent Effect  -13.93

Hey, quick one: what's Percent Effect for each of these?
1. CN(C)[C@@H]1CCN(C(=O)Cc2cccs2)[C@H]1Cc1ccncc1.O=C(O)C(F)(F)F.O=C(O)C(F)(F)F
2. CN1CCOCC2(CCCN(C(=O)c3ccc(-n4cccc4)cc3)C2)C1.O=C(O)C(F)(F)F (configuration not stated)
3. Cc1nc(CN2CCCC(N(C)CCc3cccs3)C2)no1 (configuration not stated)
4. CCc1nc(CN2CCCC(N(C)CCc3cccs3)C2)no1 (configuration not stated)
5. COc1ccccc1N1CCN(Cc2ncc(C)c(OC)c2C)CC1=O
6. CCCN1C[C@H]2CC[C@@H]1CN(Cc1cccc(-n3cccn3)c1)C2
7. CCOCC1CN(CC2CC2)Cc2nn(CC3CC3)cc21.O=C(O)C(F)(F)F (configuration not stated)
8. Cc1ccc(-c2nc(CN3CCCC(Cn4cncn4)C3)cs2)o1 (configuration not stated)

Result:
-5.714
-38
86.93
22.05
18.05
-1.729
0.05869
9.33
